Task for the reader: assign each of the following binders its reported Proportion of chimeric antibody positive cells to B cells (%) at 100 nM.
Target: T1, cynomolgus monkey CD19 on peripheral blood B cells (cynomolgus monkey (Macaca fascicularis), UniProt A0A2K5W8L9 20-557)
T1 construct: whole, on cells; also called cynomolgus monkey B cells
T1 sequence: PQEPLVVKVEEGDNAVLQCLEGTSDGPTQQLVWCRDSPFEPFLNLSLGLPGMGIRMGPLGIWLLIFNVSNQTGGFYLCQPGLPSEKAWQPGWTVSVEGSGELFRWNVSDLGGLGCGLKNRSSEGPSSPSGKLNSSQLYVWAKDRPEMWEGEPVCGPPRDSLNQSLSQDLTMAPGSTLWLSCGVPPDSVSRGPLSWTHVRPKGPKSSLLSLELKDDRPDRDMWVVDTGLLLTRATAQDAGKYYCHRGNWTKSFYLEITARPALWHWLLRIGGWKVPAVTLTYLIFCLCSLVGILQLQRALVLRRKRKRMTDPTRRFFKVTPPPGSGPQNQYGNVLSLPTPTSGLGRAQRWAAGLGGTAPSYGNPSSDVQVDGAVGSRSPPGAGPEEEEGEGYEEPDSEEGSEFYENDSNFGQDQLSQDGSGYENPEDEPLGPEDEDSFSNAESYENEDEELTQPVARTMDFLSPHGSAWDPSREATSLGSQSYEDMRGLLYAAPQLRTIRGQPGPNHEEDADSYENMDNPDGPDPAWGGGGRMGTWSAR
Experiment: FACS, cynomolgus PBMC, CD20+ B cells
Answers are plain numbers, in %.

Example binders with recorded Proportion of chimeric antibody positive cells to B cells (%) at 100 nM:
[[record]]
binder = "F3.3.10 (antibody, human IgG1, V domains shown, human-murine chimeric antibody, human IgG1) VH: DVQLQESGPGLAKLSQSLSLTCSVTGYSITSGYYWNWIRQFPGNKLEWMGHISYDGNNNYNPSLKNRISITRDTSKNQFFLKLNSVTTEDTATYYCARENYSNYYFDYWGQGTTLTVSS VL: DIVLTQSPASLAVSLGQRATISCRASQSVSKSSYTYIHWYQQKPGQPPKLLIKYASILQSGVPARFSGSGSGTDFTLNFHPVEEEDTATYYCQHSWEIPYTFGGGTKLEIK"
readingunit = "%"
endpointresult = 99

[[record]]
binder = "F4.48.12 (antibody, human IgG1, V domains shown, human-murine chimeric antibody, human IgG1) VH: QMQLKESGPGLVAPSQSLSITCTVSGFSLTDYGVSWIRQPPGKGLEWLGVIWGSGSTFYNSALTSRLSISKDNSKSQVFLKMNSLQTADTAMYFCAKHHYYGGSFAMDYWGQGTSVTVSS VL: DIQMTQASSSLSASLGDRVTISCKTSQDISNYLNWYQQKPDGTFKLLIHYTSRLHSGVPSRFSGSGSGSDYSLTISNLEREDIATYFCQQGNSLPYTFGGGTKLEMK"
readingunit = "%"
endpointresult = 22


Qu. Need Proportion of chimeric antibody positive cells to B cells (%) at 100 nM of F4.4.6 (antibody, human IgG1, V domains shown, human-murine chimeric antibody, human IgG1) VH: QVQLQQSGAELARPGASVKLSCKASGYTFTSYWMQWVKQRPGQGLEWIGAIYPGDGDSRYTQKFKGKATLTADKSSSTAYMQLSSLASEDSAVYYCARSTTTVLGNNFEYWGQGTTLTVSS VL: QIVLTQSPAIMSALPGEKVTMTCSASSSVSSMHWYQQKSGTSPKRWIYDTSKLASGVPARFSGSGSGTSYSLTISSMEAEDAATYYCQQWSSNPWTFGGGTKLEIK , thanks.
Ans. 3
